system: MCF7; experiment: Cytotoxicity against human MCF7 cells by MTT assay; type: functional, cell-based
measure: IC50 (nM)

1) Cn1c2ccccc2c(=O)c2c(O)cc3c(c21)CC(C(C)(O)CO)O3 (stereo not drawn) | 3000
2) COCC(C)(O)C1Cc2c(cc(O)c3c(=O)c4ccccc4n(C)c23)O1 (stereo not drawn) | 3000
3) C=C(C)[C@H]1Cc2c(cc(O)c3c(=O)c4ccccc4n(C)c23)O1 | 3000

All figures here come from ChEMBL document CHEMBL1152318.
